For each record, write down the corresponding Fold Ehancement over Lipid Alone.
# System: NIH 3T3
# method.notes: Transfection with β-galactosidase reporter plasmid pCMVSPORT-β-gal, β-gal activity (ONPG)
# Assay type: cell-based
# particulars: NIH 3T3 cells; DMS lipid (1:1 DOPE), 1.0 μg plasmid DNA, 1.0 ug peptide; β-gal activity OD 405 nm
One number for each entry, in Fold.

Recorded Fold Ehancement over Lipid Alone, per entry:
{"columns": ["substance", "observed.measurement"],
 "data": [
  ["(K)16YYCQQRSSYPYTFGG [Peptide #6]", 1.93],
  ["(K)16AARSPSYYRYDYGPYYAMDYD [Peptide #9]", 2.17]
]}

Here is another substance to look at.
Problem: Which Fold Ehancement over Lipid Alone is reported with NIH 3T3 for this entry: (K)16YYCARSDGNYGYYYALDYDY [Peptide #8] ?
Result: 1.86
